Data provenance: paper PMC10397247

Target: T1, 4H3172-bH
T1 chain: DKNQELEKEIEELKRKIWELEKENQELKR
Assay: two-hybrid library CCNG1;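 also: natural log of median RNA to DNA barcode read ratio; higher means stronger binding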
Listed binders paired with reported interaction score
Could you respond with only the numeric value?

Worked cases, answers included:
binder="DKNQELEKEIEELERKNWELKKEIQELER [4H3129-bH]" meas_value=-0.227
binder="DENQELKKKIEELEREIWELKKENQELKR [4H1804-bH]" meas_value=-0.154

Task: Which value of interaction score has been reported for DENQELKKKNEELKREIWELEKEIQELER [4H1985-bH] in the records?
Output: -1.84
